assayedSystem: T1, cynomolgus CD33 on the recombinant HEK293-cynomolgusCD33 cell line (cynomolgus, UniProt A0A7N9ICR5 17-359)
T1 construct: whole, on cells
assayExplanation: FACS Scatchard analysis on HEK293-cynomolgusCD33 cells
propertyName: Kd (pM)

| binder | unitAbbreviation | observedResult |
| --- | --- | --- |
| 280-50-01(mut) (antibody, human IgG1, kappa, V domains shown, Fully human monoclonal antibody; also called No 8) VH: QVQLVQSGAEVKKPGSSVKVACKASGDTFSSYAISWVRQAPGQGLEWMGRVIPIIGIASYAQNFQGRVTITADRSTSTAYMALSSLRSEDTAVYYCARNWADAFDIWGQGTMVTVSS VL: DIQLTQSPSSLSASVGDRVTITCRASQGISSVLAWYQQKPGKAPKLLIYAASSLESGVPSRFSGSGSGTDFTLTISSLQPEDFATYYCQQFDSSITFGQGTKVEIKR | pM | 1700 |
| 280-31-01(mut) (antibody, human IgG1, kappa, V domains shown, Fully human monoclonal antibody; also called No 5) VH: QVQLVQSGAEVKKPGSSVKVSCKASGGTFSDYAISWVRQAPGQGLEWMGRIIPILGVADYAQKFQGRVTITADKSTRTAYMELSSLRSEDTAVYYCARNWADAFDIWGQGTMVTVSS VL: DIQLTQSPSSLSASVGDRVTITCRASQGISSVLAWYQQKPGKAPKLLIYDASSLESGVPSRFSGSGSGTDFTLTISSLQPEDFATYYCQQFDSSITFGQGTKLEIKR | pM | 500 |
| 280-61-07 (antibody, human IgG1, kappa, V domains shown, Fully human monoclonal antibody; also called No 9; Clone ID# 280-61-07) VH: QVQLVQSGAEVKKPGSSVKVACKASGDTFSSYAISWVRQAPGQGLEWMGRVIPIIGIASYAQNFEGRVTITADRSTSTAYMALSSLRSEDTAVYYCARNWADAFDIWGQGTMVTVSS VL: DIQLTQSPSSLSASVGDRVTITCRASQGISSVLAWYQQKPGKAPKLLIYAASSLESGVPSRFSGSGSGTDFTLTISSLQPEDFATYYCQQFNSSITFGQGTKLEIKR | pM | 400 |
